The origin of these recorded values is ChEMBL document CHEMBL6078641.

# TARGET_SYSTEM: Aryl hydrocarbon receptor (Homo sapiens)
# Sequence (P35869 whole entry): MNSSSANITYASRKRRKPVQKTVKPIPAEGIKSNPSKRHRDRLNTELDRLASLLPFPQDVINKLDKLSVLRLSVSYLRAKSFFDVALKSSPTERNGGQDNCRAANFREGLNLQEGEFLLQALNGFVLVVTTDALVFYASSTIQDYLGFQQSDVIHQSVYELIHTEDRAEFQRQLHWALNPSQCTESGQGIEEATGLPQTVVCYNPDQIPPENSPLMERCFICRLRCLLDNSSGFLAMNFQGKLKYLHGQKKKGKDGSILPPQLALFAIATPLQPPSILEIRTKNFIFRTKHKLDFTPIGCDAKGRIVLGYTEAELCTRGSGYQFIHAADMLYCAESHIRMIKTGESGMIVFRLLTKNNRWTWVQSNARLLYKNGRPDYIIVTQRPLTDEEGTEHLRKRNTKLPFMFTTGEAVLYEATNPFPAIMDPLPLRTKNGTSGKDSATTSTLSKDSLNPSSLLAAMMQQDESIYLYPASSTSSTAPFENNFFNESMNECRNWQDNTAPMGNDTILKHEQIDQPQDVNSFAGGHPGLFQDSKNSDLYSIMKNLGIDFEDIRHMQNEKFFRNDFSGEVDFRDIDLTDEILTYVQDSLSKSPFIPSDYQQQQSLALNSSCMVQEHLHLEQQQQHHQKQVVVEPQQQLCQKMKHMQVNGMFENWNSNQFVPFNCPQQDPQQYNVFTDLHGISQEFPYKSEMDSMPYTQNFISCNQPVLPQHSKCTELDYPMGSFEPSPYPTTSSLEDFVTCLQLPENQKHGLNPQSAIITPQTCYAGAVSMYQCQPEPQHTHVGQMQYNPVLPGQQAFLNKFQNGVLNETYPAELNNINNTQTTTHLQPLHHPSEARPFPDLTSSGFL
# ASSAY_DETAILS: Agonist activity at Luc-fused AhR (unknown origin) transcriptional activity expressed in human LS174T cells incubated for 24 hrs by luciferase reporter gene assay
# Assay type: cell-based
MEASURED_PROPERTY: EC50 (µM)
Give a bare numeral; the unit µM is implied.

Documented EC50 of O=C1Cc2ccccc2N1 : 80.9

Documented EC50 of Brc1ccc2[nH]ccc2c1 : 58.1

Documented EC50 of Clc1ccc2cc[nH]c2c1 : 80.6

Documented EC50 of c1ccc2[nH]ccc2c1 : 43.1

Documented EC50 of O=C1Cc2ccc(Br)cc2N1 : 18.6

Documented EC50 of Clc1ccc2[nH]ccc2c1 : 77.2

----------
Field: pEC50. Provide a value for each of the molecules that follow.
# TARGET_SYSTEM: Aryl hydrocarbon receptor (Homo sapiens)
# ASSAY_DETAILS: Agonist activity at Luc-fused AhR (unknown origin) transcriptional activity expressed in human LS174T cells incubated for 4 hrs by luciferase reporter gene assay
# Type: cell-based
// scale note: pEC50 = -log10(conc_M); give the bare number

Documented pEC50 of Brc1ccc2[nH]ccc2c1 : 5.17

Documented pEC50 of Clc1cccc2[nH]ccc12 : 5.10

Documented pEC50 of Clc1ccc2[nH]ccc2c1 : 4.62

Documented pEC50 of O=C1Cc2ccc(Br)cc2N1 : 5.60

Documented pEC50 of c1ccc2[nH]ccc2c1 : 4.95

Documented pEC50 of Clc1ccc2cc[nH]c2c1 : 5.37

Documented pEC50 of O=C1Cc2ccccc2N1 : 5.28
